Data provenance is patent US9187525B2.

Molecular target: T1, natriuretic peptide receptor-B (human)
T1 chain: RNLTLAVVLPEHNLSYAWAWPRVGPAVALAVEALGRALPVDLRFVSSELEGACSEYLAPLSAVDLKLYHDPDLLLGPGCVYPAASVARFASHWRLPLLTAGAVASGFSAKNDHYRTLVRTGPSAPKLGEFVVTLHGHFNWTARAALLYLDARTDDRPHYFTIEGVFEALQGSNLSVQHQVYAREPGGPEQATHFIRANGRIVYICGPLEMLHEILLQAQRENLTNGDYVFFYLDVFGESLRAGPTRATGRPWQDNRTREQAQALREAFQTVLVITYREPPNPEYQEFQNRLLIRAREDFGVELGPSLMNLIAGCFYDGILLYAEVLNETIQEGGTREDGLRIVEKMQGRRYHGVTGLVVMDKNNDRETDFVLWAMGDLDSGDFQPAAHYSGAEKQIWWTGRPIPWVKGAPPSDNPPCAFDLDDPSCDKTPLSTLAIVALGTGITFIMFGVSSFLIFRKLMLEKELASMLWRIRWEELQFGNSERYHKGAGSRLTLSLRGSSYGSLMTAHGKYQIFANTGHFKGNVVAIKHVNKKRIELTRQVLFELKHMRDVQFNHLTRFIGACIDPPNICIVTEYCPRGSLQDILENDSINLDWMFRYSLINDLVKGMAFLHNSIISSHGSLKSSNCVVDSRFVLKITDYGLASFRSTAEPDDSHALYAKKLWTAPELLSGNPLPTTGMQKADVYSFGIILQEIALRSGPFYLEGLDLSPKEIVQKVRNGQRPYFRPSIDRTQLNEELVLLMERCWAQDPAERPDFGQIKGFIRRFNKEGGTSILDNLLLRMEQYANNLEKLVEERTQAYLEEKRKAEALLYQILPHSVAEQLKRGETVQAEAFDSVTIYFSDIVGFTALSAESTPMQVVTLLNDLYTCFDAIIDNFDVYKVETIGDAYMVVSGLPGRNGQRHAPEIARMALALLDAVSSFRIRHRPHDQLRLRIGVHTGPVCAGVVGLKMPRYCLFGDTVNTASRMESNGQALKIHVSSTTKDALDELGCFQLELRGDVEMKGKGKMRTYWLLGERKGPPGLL
Assay: cell-based or functional assay
Numbered stars: 1 amine (or outer) side, 2 acyl side, 3 side chain; on linkers, the order of the positions; unused ones are H or OH. Square brackets hold non-standard residues; d marks the D form. Ends that are not written are not given here. * marks the point of attachment. ctb = (S)-2-amino-3-(tert-butylthio)propanoic acid, CC(C)(C)SC[C@@H](N[*:1])C(=O)[*:2]; Sni = (S)-nipecotic acid, O=C([C@H]1CCCN([*:1])C1)[*:2]; Hyp = O=C(O)[C@@H]1C[C@@H](O)CN1; NMeF = CN[C@@H](Cc1ccccc1)C(=O)O; NMeL = CN[C@@H](CC(C)C)C(=O)O; Tle = CC(C)(C)[C@H](N)C(=O)O; Lauroyl = CCCCCCCCCCCC(=O)*; Decanoyl = CCCCCCCCCC(=O)*; Octanoyl = CCCCCCCC(=O)*; leu = not defined here; Occ = octanoic acid
Recorded EC50 group, cGMP in GTM-3 cells, one value per entry.

// worked examples, EC50 group, cGMP in GTM-3 cells included
Binder	EC50 group, cGMP in GTM-3 cells
Octanoyl-[dA]F[dK]L[Hyp][NMeL]DRI-NH2 [JAL-1060]	≤ 1 µM
XXFGLKLDRI (HELM PEPTIDE1{[CCCCCC(=O)[*:2]].[O=C(C1CCN([*:1])CC1)[*:2]].F.G.L.K.L.D.R.I.[am]}$$$$V2.0; SMILES CCCCCC(=O)N1CCC(C(=O)N[C@@H](Cc2ccccc2)C(=O)NCC(=O)N[C@@H](CC(C)C)C(=O)N[C@@H](CCCCN)C(=O)N[C@@H](CC(C)C)C(=O)N[C@@H](CC(=O)O)C(=O)N[C@@H](CCCNC(=N)N)C(=O)N[C@H](C(N)=O)[C@@H](C)CC)CC1) [JAL-0651]	≤ 15 µM
Octanoyl-AFLL[Hyp][NMeL][Tle]RI-NH2 (also: lower-case ala, leu: meaning not given here) [JAL-1420]	≤ 15 µM
[Decanoyl][Sni]F[leu]L[Hyp][NMeL]DRI-NH2 (reading uncertain; also: printed as 5587-Sni-Phe-leu-Leu-Hyp-Nml-Asp-Arg-Ile-NH2) [JAL-1666]	≤ 1 µM
[Occ][Sni]F[ctb]L[Hyp][NMeL]DRI-NH2 [JAL-1623]	≤ 1 µM

Proceed to the following item.
Request: Look up EC50 group, cGMP in GTM-3 cells: Lauroyl-[NMeF]RL[Hyp][NMeL]DRI-NH2 (not fully specified (some residues); printed as 832-Nmf-arg-Leu-Hyp-Nml-Asp-Arg-Ile-NH2) [JAL-1244]
Result: ≤ 15 µM
